From: paper PMC11012124

System: MALME-3M
Test: cells
Conditions: Homo sapiens, 48 h, read-out: LC50
Rule: CC50 below 30 µM gives y, anything at or above gives n.

Some solved cases for reference:
>>> label_value("Cc1ccc(/C=C/C(=O)c2ccc(S(=O)(=O)NCCNc3nc(Nc4ccc(F)cc4)nc(N(C)C)n3)cc2)cc1 [24b]")
"n"
>>> label_value("CN(C)c1nc(NCCNS(=O)(=O)c2ccc(C(=O)/C=C/c3ccc(Cl)cc3)cc2)nc(Nc2ccc(F)cc2)n1 [24e]")
"y"
>>> label_value("CN(C)c1nc(NCCNS(=O)(=O)c2ccc(C(=O)/C=C/c3ccccc3)cc2)nc(Nc2ccc(F)cc2)n1 [24a]")
"n"
>>> label_value("COc1cc(/C=C/C(=O)c2ccc(S(=O)(=O)NCCNc3nc(Nc4ccc(F)cc4)nc(N(C)C)n3)cc2)cc(OC)c1OC [24d]")
"n"
>>> label_value("COc1cc(/C=C/C(=O)c2cc(OC)c(OC)c(OC)c2)ccc1Oc1nc(Nc2ccc(F)cc2)nc(N(C)C)n1 [21d]")
"y"

From here, focus on the item given below.
Data request: Take the molecule CN(C)c1nc(NCCNS(=O)(=O)c2ccc(C(=O)/C=C/c3ccc(F)cc3)cc2)nc(N2CCOCC2)n1 [23f] and say whether its CC50 is less than 30 µM.
Data returned: n

----------
Entries and their GI50 values follow.
System: A549/ATCC
Assay: cells
Conditions: Homo sapiens, A549, 48 h
Report the value in µM with no unit label.

>>> observed_value("Nc1nc(N)c2c(n1)NC(c1ccc(C(F)(F)F)cc1)CC(c1ccc(Nc3nc(NCCO)nc(Nc4ccc(Cl)cc4)n3)cc1)=N2 (stereo not shown) [33g]")
1.73
>>> observed_value("Nc1nc(N)c2c(n1)NC(c1ccccc1)CC(c1ccc(Nc3nc(NCCO)nc(Nc4ccc(Cl)cc4)n3)cc1)=N2 (stereo not shown) [33a]")
2.84
>>> observed_value("CN(C)c1nc(NCCNS(=O)(=O)c2ccc(C(=O)/C=C/c3ccc(C(F)(F)F)cc3)cc2)nc(N2CCOCC2)n1 [23g]")
13.8
>>> observed_value("CN(C)c1nc(NCCNS(=O)(=O)c2ccc(C(=O)/C=C/c3ccc(C(F)(F)F)cc3)cc2)nc(Nc2ccc(F)cc2)n1 [24g]")
10
>>> observed_value("CN(C)c1nc(NCCNS(=O)(=O)c2ccc(C(=O)/C=C/c3ccc(Cl)cc3)cc2)nc(Nc2ccc(F)cc2)n1 [24e]")
4.52

Data request: What value of GI50 has been recorded for this entry: CN(C)c1nc(NCCNS(=O)(=O)c2ccc(C(=O)/C=C/c3ccccc3)cc2)nc(N2CCOCC2)n1 [23a]
Data returned: 13.6

Data request: What value of GI50 has been recorded for this entry: Nc1nc(N)c2c(n1)NC(c1ccc(Cl)cc1)CC(c1ccc(Nc3nc(NCCO)nc(Nc4ccc(Cl)cc4)n3)cc1)=N2 (stereo not shown) [33e]
Data returned: 4.12

Data request: What value of GI50 has been recorded for this entry: COc1ccc(/C=C/C(=O)c2ccc(S(=O)(=O)NCCNc3nc(Nc4ccc(F)cc4)nc(N(C)C)n3)cc2)cc1 [24c]
Data returned: 6.54

Data request: What value of GI50 has been recorded for this entry: CN(C)c1nc(NCCNS(=O)(=O)c2ccc(C3=Nc4c(N)nc(N)nc4NC(c4ccc(C(F)(F)F)cc4)C3)cc2)nc(N2CCOCC2)n1 (stereo not shown) [30g]
Data returned: 51.3

Data request: What value of GI50 has been recorded for this entry: Cc1ccc(/C=C/C(=O)c2ccc(S(=O)(=O)NCCNc3nc(Nc4ccc(F)cc4)nc(N(C)C)n3)cc2)cc1 [24b]
Data returned: 10.5

Data request: What value of GI50 has been recorded for this entry: CN(C)c1nc(NCCNS(=O)(=O)c2ccc(C(=O)/C=C/c3ccc(Cl)cc3)cc2)nc(N2CCOCC2)n1 [23e]
Data returned: 14.4
